Each entry below lists one item and its recorded cell viability value.
Tested on: P12-Ichikawa
Experiment: cell viability relative to DMSO control; higher = less cytotoxic
Conditions: RPMI 5 mM glucose + 10% FBS; 48 h; 5.12 µM
Report as a plain number; the unit % is understood.

Below: 3 molecules and their reported cell viability.
CC[C@@H]1C(=O)N(C)c2cnc(Nc3ccc(C(=O)NC4CCN(C)CC4)cc3OC)nc2N1C1CCCC1 = 15
CC(S)C(=O)NCC(=O)O (centres undefined) = 115
OCCN(CCO)c1nc(N2CCCCC2)c2nc(N(CCO)CCO)nc(N3CCCCC3)c2n1 = 109

[in] Lab note: record cell viability of `CC[C@H]1CN2CCc3cc(OC)c(OC)cc3[C@@H]2C[C@@H]1C[C@H]1NCCc2cc(OC)c(OC)cc21` tested on P12-Ichikawa.
[out] 14.8

[in] Lab note: record cell viability of NC(CO)C(=O)NNCc1ccc(O)c(O)c1O (centres undefined) tested on P12-Ichikawa.
[out] 93.6

[in] Lab note: record cell viability of `CN(C)CCc1c[nH]c2ccc(C[S+](=O)([O-])N3CCCC3)cc12` tested on P12-Ichikawa.
[out] 111

[in] Lab note: record cell viability of `COc1ccc2[nH]cc(CCNC(C)=O)c2c1` tested on P12-Ichikawa.
[out] 109

[in] Lab note: record cell viability of `Nc1ccc([S+](=O)([O-])Nc2ncccn2)cc1` tested on P12-Ichikawa.
[out] 132

[in] Lab note: record cell viability of `CC(C)(C)OC(=O)Nc1ccc(-c2cc(C(=O)NCCCCCCC(=O)NO)no2)cc1` tested on P12-Ichikawa.
[out] 35.3

[in] Lab note: record cell viability of `COc1cc2ncn(-c3cc(OCc4ccccc4C(F)(F)F)c(C(N)=O)s3)c2cc1OC` tested on P12-Ichikawa.
[out] 12.2

====

Each entry below lists one item and its recorded cell viability value.
Test system: P12-Ichikawa
Experiment: cell viability relative to DMSO control; higher = less cytotoxic
Details: HPLM + 10% dialyzed FBS; 48 h; 0.00702 µM
Report as a plain number; the unit % is understood.

Below: 3 compounds and their reported cell viability.
C[C@H](NCc1ccc(OCc2cccc(F)c2)cc1)C(N)=O = 107
Oc1ccc([C@@H]2Oc3ccc(O)cc3[C@@H]3CCC[C@@H]32)cc1 = 94.7
COc1cc2ncnc(Nc3cccc(Cl)c3)c2cc1OC = 97.3

[in] Lab note: record cell viability of `CCOC(=O)O[C@]1(C(=O)OCCl)CC[C@H]2[C@@H]3CCC4=CC(=O)C=C[C@]4(C)[C@H]3[C@@H](O)C[C@@]21C` tested on P12-Ichikawa.
[out] 99.3

[in] Lab note: record cell viability of `CC[C@H]1CN2CCc3cc(OC)c(OC)cc3[C@@H]2C[C@@H]1C[C@H]1NCCc2cc(OC)c(OC)cc21` tested on P12-Ichikawa.
[out] 108

[in] Lab note: record cell viability of CC(S)C(=O)NCC(=O)O (stereo unspecified) tested on P12-Ichikawa.
[out] 118

====

System: NOMO1
Assay: AUC of viability dose-response curve (% viability x log10 dose units); higher = less sensitive
Conditions: RPMI 5 mM glucose + 10% dialyzed FBS; 48 h
Each entry below lists one item and its recorded AUC of viability dose-response curve value.
Would you mind answering with just the numeric figure?

Below: 5 compounds and their reported AUC of viability dose-response curve.
COC(=O)N[C@H](C(=O)N1CCC[C@H]1c1ncc(-c2ccc(-c3ccc(-c4cnc([C@@H]5CCCN5C(=O)[C@@H](NC(=O)OC)C(C)C)[nH]4)cc3)cc2)[nH]1)C(C)C = 470
Cc1cnc(Nc2ccc(N3CCN(C)CC3)cc2)nc1Nc1cccc([S+](=O)([O-])NC(C)(C)C)c1 = 406
COc1ccc([S+](=O)([O-])Nc2cccnc2Nc2ccc(O)cc2)cc1 = 410
CCCCCCCCCCCC/1=C(O)/C(=O)/C=C(O)\C1=O = 326
CCOC(=O)O[C@]1(C(=O)OCCl)CC[C@H]2[C@@H]3CCC4=CC(=O)C=C[C@]4(C)[C@H]3[C@@H](O)C[C@@]21C = 431

Attention now shifts to the item below.
[in] Supply AUC of viability dose-response curve value. Item: `C[N]1C=C(C=N1)C2=CC=C3N=CC\4=C(N(C(=O)\C=C4)C5=CC6=C(CCN6C(=O)C=C)C=C5)C3=C2`
[out] 375

====

Test system: NOMO1
Assay: cell viability relative to DMSO control; higher = less cytotoxic
Conditions: RPMI 5 mM glucose + 10% FBS; 48 h; 0.0211 µM
MEASUREMENT KIND: cell viability (%)
Report as a plain number; the unit % is understood.

Below: 8 compounds and their reported cell viability.
CCOCC(O)COc1ccc(NC(=O)CC[S+](C)C)cc1 (stereo not given) = 86.7
Nc1nc(NCCNc2ncc(-n3ccnc3)c(-c3ccc(Cl)cc3Cl)n2)ccc1[N+](=O)[O-] = 128
CC(C)(C)C1=CC(=C(NC(=O)C/2=C/NC3=C(C=CC=C3)C2=O)C=C1O)C(C)(C)C = 128
CC(C)n1cnc2c(NCCc3ccc(O)cc3)nc(-c3csc4ccccc34)nc21 = 113
O=C(NCc1ccccc1)c1csc(Nc2ccncn2)n1 = 83
CO[C@@H]1[C@@H](O)[C@H](O)[C@@H](n2c3c(Cl)cccc3c3c4c(c5c6cccc(Cl)c6[nH]c5c32)C(=O)NC4=O)O[C@H]1CO = 105
C[C@H](NCc1ccc(OCc2cccc(F)c2)cc1)C(N)=O = 108
CN(C(Cc1ccc(O[S+](=O)([O-])c2cccc3cnccc23)cc1)C(=O)N1CCN(c2ccccc2)CC1)[S+](=O)([O-])c1cccc2cnccc12 (stereo not given) = 101

[in] Supply cell viability value. Item: CCC(C1CCC(C)C(O1)C(C)C(O)C(C)C(=O)C(CC)C2OC\3(O[C@]4(CC[C@@](C)(O4)C5CC[C@@](O)(CC)C(C)O5)C(O)\C=C3)C(C)CC2C)C([O-])=O (stereo not given in full)
[out] 90.6

[in] Supply cell viability value. Item: `CC1=C(/C=C/C(C)=C/C=C/C(C)=C/C(=O)O)C(C)(C)CCC1`
[out] 111

====

System: SEM cells
Assay: cell viability relative to DMSO control; higher = less cytotoxic
Details: RPMI 5 mM glucose + 10% dialyzed FBS; 48 h; 0.00702 µM
Each entry below lists one item and its recorded cell viability value.
Report as a plain number; the unit % is understood.

COc1cc2ncn(-c3cc(OCc4ccccc4C(F)(F)F)c(C(N)=O)s3)c2cc1OC = 124
C=CC(=O)Nc1ccc2ncnc(Nc3ccc(OCc4cccc(F)c4)c(Cl)c3)c2c1 = 88.4

Attention now shifts to the item below.
[in] Supply cell viability value. Item: CC(S)C(=O)NCC(=O)O (stereo not drawn)
[out] 45

====

Tested on: NOMO1
Assay: cell viability relative to DMSO control; higher = less cytotoxic
Settings: RPMI 5 mM glucose + 10% FBS; 48 h; 5.12 µM
MEASUREMENT KIND: cell viability (%)
Report as a plain number; the unit % is understood.

Below: 4 compounds and their reported cell viability.
Cn1cnc([N+](=O)[O-])c1Sc1ncnc2nc[nH]c12 = 57.4
COc1cc2ncn(-c3cc(OCc4ccccc4C(F)(F)F)c(C(N)=O)s3)c2cc1OC = 26.3
CN(C)CCc1c[nH]c2ccc(C[S+](=O)([O-])N3CCCC3)cc12 = 96.4
C[C@H](NCc1ccc(OCc2cccc(F)c2)cc1)C(N)=O = 113

[in] Supply cell viability value. Item: C[N+]1(C)[C@@H]2CC(OC(=O)C(O)(c3cccs3)c3cccs3)C[C@H]1[C@@H]1O[C@@H]12 (stereo not given in full)
[out] 95.6

====

Each entry below lists one item and its recorded AUC of viability dose-response curve value.
System: SEM cells
Test: AUC of viability dose-response curve (% viability x log10 dose units); higher = less sensitive
Conditions: RPMI 5 mM glucose + 10% FBS; 48 h
Would you mind answering with just the numeric figure?

Below: 3 molecules and their reported AUC of viability dose-response curve.
C[C@]\12CCC(=O)\C=C1[C@@H]3C[C@@H]3[C@@H]4[C@@H]2CC[C@@]5(C)[C@H]4[C@@H]6C[C@@H]6[C@@]57CCC(=O)O7 = 451
NCCc1c[nH]cn1 = 437
O[C@@H]1[C@@H](O)[C@H](O[C@@H]([C@H]1O)C(O)=O)OC2=C(O)C(=C3C(=O)\C=C(/OC3=C2)C4=CC=CC=C4)O = 409

[in] Supply AUC of viability dose-response curve value. Item: `C[C@H](Cc1ccc(O)c(O)c1)[C@@H](C)Cc1ccc(O)c(O)c1`
[out] 453

[in] Supply AUC of viability dose-response curve value. Item: `Clc1ccccc1C(c1ccccc1)(c1ccccc1)n1ccnc1`
[out] 416

[in] Supply AUC of viability dose-response curve value. Item: `C[C@H]1Oc2cc(cnc2N)-c2c(nn(C)c2C#N)CN(C)C(=O)c2ccc(F)cc21`
[out] 457
